- test system: COX-2 (Mus musculus, UniProt Q05769)
- Construct: host or cells: RAW 264.7 cells, aspirin-pretreated, then induced with interferon gamma and LPS
- Sequence (Q05769 18-604): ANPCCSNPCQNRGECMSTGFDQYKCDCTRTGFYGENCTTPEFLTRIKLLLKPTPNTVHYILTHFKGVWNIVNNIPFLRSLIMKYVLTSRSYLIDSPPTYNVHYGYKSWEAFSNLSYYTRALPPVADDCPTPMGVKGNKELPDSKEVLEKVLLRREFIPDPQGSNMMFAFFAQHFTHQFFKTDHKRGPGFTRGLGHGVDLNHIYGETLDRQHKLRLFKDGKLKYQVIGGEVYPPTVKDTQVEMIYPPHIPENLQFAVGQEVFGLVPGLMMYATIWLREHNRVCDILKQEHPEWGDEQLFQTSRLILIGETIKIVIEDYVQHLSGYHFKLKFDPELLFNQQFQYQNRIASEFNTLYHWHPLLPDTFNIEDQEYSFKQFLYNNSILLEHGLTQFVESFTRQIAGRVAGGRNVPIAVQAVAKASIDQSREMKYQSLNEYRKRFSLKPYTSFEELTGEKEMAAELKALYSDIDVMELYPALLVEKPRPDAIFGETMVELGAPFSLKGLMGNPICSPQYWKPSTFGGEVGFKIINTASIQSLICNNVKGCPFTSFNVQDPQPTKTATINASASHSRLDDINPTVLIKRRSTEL
- measurement protocol: Assay for the COX-2 inhibitory activity using RAW 264.7 cell line (PGE2 inhibition)
- Assay type: cell-based
- assay setup: RAW264.7, 10 nM test compound, RAW 264.7 cells, interferon γ and LPS, 18 hours, read-out: Cyclooxygenase (COX) Inhibition (%) COX-2 (10 nM)
experimental endpoint: inhibition at 0.01 µM (%)

Please review the following examples before continuing.
{"columns": ["entry smiles", "test system", "measured"],
 "data": [
  ["CC(C)Oc1nc(-c2ccccc2)n(-c2ccc(S(N)(=O)=O)cc2)n1", "COX-2 (Mus musculus, UniProt Q05769)", 10.6],
  ["COc1ccc(-c2nc(O)nn2-c2ccc(S(N)(=O)=O)cc2)cc1F", "COX-2 (Mus musculus, UniProt Q05769)", 11],
  ["COc1ccc(-c2nc(OCC#N)nn2-c2ccc(S(N)(=O)=O)cc2)cc1", "COX-2 (Mus musculus, UniProt Q05769)", 15.5],
  ["C#CCOc1nc(-c2ccc(OC)cc2)n(-c2ccc(S(N)(=O)=O)cc2)n1", "COX-2 (Mus musculus, UniProt Q05769)", 16.7],
  ["COc1ccc(-c2nc(OC)nn2-c2ccc(S(C)(=O)=O)cc2)cc1", "COX-2 (Mus musculus, UniProt Q05769)", 27.2],
  ["NS(=O)(=O)c1ccc(-n2nc(OCCCl)nc2-c2ccccc2)cc1", "COX-2 (Mus musculus, UniProt Q05769)", 26.6],
  ["NS(=O)(=O)c1ccc(-n2nc(OCC(F)(F)F)nc2-c2ccc(F)cc2)cc1", "COX-2 (Mus musculus, UniProt Q05769)", 27.7],
  ["CCOc1ccc(-c2nc(O)nn2-c2ccc(S(N)(=O)=O)cc2)cc1", "COX-2 (Mus musculus, UniProt Q05769)", 10.5]
]}

1 = CCOc1nc(-c2ccc(OC)cc2)n(-c2ccc(S(C)(=O)=O)cc2)n1
2 = C=CCOc1nc(-c2ccccc2)n(-c2ccc(S(N)(=O)=O)cc2)n1
3 = COc1ccc(-c2nc(O)nn2-c2ccc(S(N)(=O)=O)cc2)cc1
4 = NS(=O)(=O)c1ccc(-n2nc(O)nc2-c2ccc(F)cc2)cc1
5 = COc1nc(-c2ccccc2)n(-c2ccc(S(C)(=O)=O)cc2)n1
QUERY: Sort by inhibition at 0.01 µM, descending. // rank by listing labels in the order requested
RESULT: 1, 5, 2, 3, 4

A = C=CCOc1nc(-c2ccc(OC)cc2)n(-c2ccc(S(N)(=O)=O)cc2)n1
B = CCSc1nc(-c2ccccc2)n(-c2ccc(S(N)(=O)=O)cc2)n1
QUERY: For the pair A and B , which member has the lower inhibition at 0.01 µM number? Write down the label of the entry you select.
RESULT: B
(B: 9.5%, A: 33.1%)
